B1: ZNF449 (parent)
chain: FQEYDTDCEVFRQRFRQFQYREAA

# Variants of: B1
# Method Summary: protein stability index of a GFP-peptide fusion (GPS, HEK-293T) (PSI 1-6); higher = more stable;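 also: lentivirally expressed fusions sorted by FACS into six bins by GFP to DsRed ratio, PSI derived from sequencing read proportions per bin multiplied by bin number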
# Condition Label: c terminus: a fixed tail appended
Measured Parameter: protein stability index

Exercise: Given the variant `Q2A` , what is its reported protein stability index?
Key: 2.9

Exercise: I would be grateful if you could share the reported protein stability index for `A24Y` .
Key: 2.33

Exercise: Reported protein stability index for `Q13S` : what is it?
Key: 2.4

Exercise: Which protein stability index value is on record for `R16K` ?
Key: 2.98

Exercise: protein stability index lookup needed for `A24W` , thanks.
Key: 1.93

Exercise: // lookup protein stability index for `Q19H`
Key: 2.6

Exercise: Return reported protein stability index; argument: `F15I`
Key: 2.44

Exercise: What does the record list as protein stability index for `V10F` ?
Key: 2.86

Exercise: Consider the variant shown here: `F15H` What is its recorded protein stability index?
Key: 3.33

Exercise: Which protein stability index value is on record for `Y4Q` ?
Key: 2.66

Exercise: Which protein stability index value belongs to `Q2N` ?
Key: 2.93

Exercise: Query (variant): `A23E` ; field requested: protein stability index
Key: 3.28

Exercise: Entry under review: `F1A` . Reported protein stability index?
Key: 2.85

Exercise: Bench note: what protein stability index did `F15S` show?
Key: 2.57

Exercise: So what does the record say about protein stability index for `R12V` ?
Key: 2.21

Exercise: Requested field: protein stability index. Item: `F1P`
Key: 3.42

Exercise: Give its protein stability index value. Item: `E3C`
Key: 1.76

Exercise: Could you share which protein stability index value was measured for `Y4A` ?
Key: 2.12

Exercise: Report protein stability index for `V10N` please.
Key: 2.67

Exercise: Which protein stability index is listed for `F18L` ?
Key: 4.05

Exercise: Form field: reported protein stability index of `E3A`
Key: 2.08

Exercise: So what's the measured protein stability index for this one? `R21C`
Key: 2.92

Exercise: protein stability index lookup needed for `R16H` , thanks.
Key: 1.98

Exercise: Need protein stability index of `Y4K` , thanks.
Key: 2.85

Exercise: Could you share which protein stability index value was measured for `A23H` ?
Key: 2.54

Exercise: So what does the record say about protein stability index for `D7Y` ?
Key: 1.34

Exercise: Query: protein stability index; subject: `A24P`
Key: 2.77

Exercise: Param item = `F15E` ; retrieve measured protein stability index.
Key: 2.92

Exercise: Value lookup for protein stability index; key = `R14V`
Key: 1.65

Exercise: // returns reported protein stability index for input `E22Y`
Key: 1.95

Exercise: Tell me the measured protein stability index of `D5H` , please.
Key: 1.76

Exercise: Entry `Q19R` has what protein stability index?
Key: 2.65
